# Test system: P. aeruginosa PAO1 cells
# assay: LC–MS quantification of intracellular accumulation, PAO1;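 note: slope of accumulation versus external concentration fitted as a line through zero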
# applied_conditions: 40 min incubation, 10-80 µM
Where a name gives a salt, the structure may show the parent alone.
Recorded measurements of Concentration slopes of accumulation, PAO1_40 min, one per entry
API doc: respond with a numeric literal and nothing else, no unit.

Exam item: Entry Cc1oc(=O)oc1CN1CCN(c2cc3c(cc2F)c(=O)c(C(=O)O)c2n3C(C)S2)CC1 (stereo not drawn) [OU-0000631, PRULIFLOXACIN] needs its Concentration slopes of accumulation, PAO1_40 min filled in; supply it.
Marked response: 11.45

Exam item: Entry CNC(=C[N+](=O)[O-])NCCSCc1ccc(CN(C)C)o1 [OU-0000840, Ranitidine HCl] needs its Concentration slopes of accumulation, PAO1_40 min filled in; supply it.
Marked response: 2.83

Exam item: Entry C[C@@H]1CN(c2c(F)c(N)c3c(=O)c(C(=O)O)cn(C4CC4)c3c2F)C[C@H](C)N1 [OU-0000617, SPARFLOXACIN] needs its Concentration slopes of accumulation, PAO1_40 min filled in; supply it.
Marked response: 5.25

---

# Test system: P. aeruginosa PAO1-Pore cells
# assay: LC–MS quantification of intracellular accumulation, PAO1-Pore;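 note: slope of accumulation versus external concentration fitted as a line through zero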
# applied_conditions: 40 min incubation, 10-80 µM
Where a name gives a salt, the structure may show the parent alone.
Recorded measurements of Concentration slopes of accumulation, PAO1-Pore_40 min, one per entry
API doc: respond with a numeric literal and nothing else, no unit.

Some compounds with recorded Concentration slopes of accumulation, PAO1-Pore_40 min:
Exam item: Fill in: Concentration slopes of accumulation, PAO1-Pore_40 min on P. aeruginosa PAO1-Pore cells, entry CC1CCc2c(N3CCC(O)CC3)c(F)cc3c(=O)c(C(=O)O)cn1c23 (stereo not shown)
Marked response: 12.74

Exam item: Fill in: Concentration slopes of accumulation, PAO1-Pore_40 min on P. aeruginosa PAO1-Pore cells, entry CC(C)(C)OC(=O)N1[C@H](CCC2CCCCC2)CNC(=O)[C@@H]1Cc1cc(F)cc(F)c1
Marked response: 28.02

Exam item: Fill in: Concentration slopes of accumulation, PAO1-Pore_40 min on P. aeruginosa PAO1-Pore cells, entry CC(=O)NC[C@H]1CN(c2ccc(N3CCOCC3)c(F)c2)C(=O)O1
Marked response: 26.51

Exam item: Fill in: Concentration slopes of accumulation, PAO1-Pore_40 min on P. aeruginosa PAO1-Pore cells, entry O=C(O)c1cn(C2CC2)c2cc(N3CCNCC3)c(F)cc2c1=O
Marked response: 3.32

Exam item: Fill in: Concentration slopes of accumulation, PAO1-Pore_40 min on P. aeruginosa PAO1-Pore cells, entry Cc1cc(C)nc(NS(=O)(=O)c2ccc(N)cc2)n1
Marked response: 1.05

Continuing:
Exam item: Fill in: Concentration slopes of accumulation, PAO1-Pore_40 min on P. aeruginosa PAO1-Pore cells, entry CN1C[C@H](C(=O)N[C@]2(C)O[C@@]3(O)[C@@H]4CCCN4C(=O)[C@H](Cc4ccccc4)N3C2=O)C=C2c3cccc4[nH]cc(c34)C[C@H]21 [OU-0000834, Ergotamine Tartrate]
Marked response: 20.50

Exam item: Fill in: Concentration slopes of accumulation, PAO1-Pore_40 min on P. aeruginosa PAO1-Pore cells, entry CCN1CCCC1CNC(=O)c1cc(S(N)(=O)=O)ccc1OC.Cl (stereo not shown) [OU-0032505, Sulpiride HCl]
Marked response: 7.90

Exam item: Fill in: Concentration slopes of accumulation, PAO1-Pore_40 min on P. aeruginosa PAO1-Pore cells, entry CC(C)NCC(O)c1ccc(NS(C)(=O)=O)cc1 (stereo not shown) [OU-0032507, Sotalol HCl]
Marked response: 3.55

Exam item: Fill in: Concentration slopes of accumulation, PAO1-Pore_40 min on P. aeruginosa PAO1-Pore cells, entry O=C1N[C@@H](Cc2c[nH]c3ccccc23)C(=O)N2CCC[C@@H]12
Marked response: 2.49

Exam item: Fill in: Concentration slopes of accumulation, PAO1-Pore_40 min on P. aeruginosa PAO1-Pore cells, entry COc1ccc(CCN(C)CCCC(C#N)(c2ccc(OC)c(OC)c2)C(C)C)cc1OC (stereo not shown) [OU-0000734, Verapamil HCl]
Marked response: 15.63

Exam item: Fill in: Concentration slopes of accumulation, PAO1-Pore_40 min on P. aeruginosa PAO1-Pore cells, entry N[C@@H](CC(=O)N1CCn2c(nnc2C(F)(F)F)C1)Cc1cc(F)c(F)cc1F [OU-0000833, Sitagliptin Monophosphate Monohydrate]
Marked response: 4.84

Exam item: Fill in: Concentration slopes of accumulation, PAO1-Pore_40 min on P. aeruginosa PAO1-Pore cells, entry NC(N)=Nc1nc(CSCCC(N)=NS(N)(=O)=O)cs1
Marked response: 2.86

Exam item: Fill in: Concentration slopes of accumulation, PAO1-Pore_40 min on P. aeruginosa PAO1-Pore cells, entry CCOC(=O)NC(=S)Nc1ccccc1NC(=S)NC(=O)OCC [OU-0000837, Thiophanate]
Marked response: 1.80

Exam item: Fill in: Concentration slopes of accumulation, PAO1-Pore_40 min on P. aeruginosa PAO1-Pore cells, entry CCn1cc(C(=O)O)c(=O)c2cc(F)c(N3CCNCC3)cc21
Marked response: 54.56

Exam item: Fill in: Concentration slopes of accumulation, PAO1-Pore_40 min on P. aeruginosa PAO1-Pore cells, entry COc1c(N2C[C@@H]3CCCN[C@@H]3C2)c(F)cc2c(=O)c(C(=O)O)cn(C3CC3)c12 [OU-0000626, MOXIFLOXACIN HYDROCHLORIDE]
Marked response: 7.25
